Kindly supply the reported T/C values for the records listed here.
System: CD2F1 mice, L1210 leukemia ip, survival T/C
Test: NCI In Vivo Anticancer Drug Screen. Data for tumor model L1210 Leukemia (intraperitoneal) in CD2F1 (CDF1) mice
Conditions: endpoint: mean survival time; dose: 400.0 mg/kg/injection; schedule: Q04DX003 (ip); vehicle: saline with Tween-80; higher = longer survival
Toxic doses and inconclusive results are not listed.

Q) Reported T/C, compound `OC(Cc1nc(-c2ccccc2)c(-c2ccccc2)s1)(C(F)(F)F)C(F)(F)F` : ____
A) 89 % of control

Q) // same read-out, input: `Cc1cc(=O)[nH]c(N/N=C/c2ccc(N(C)C)cc2)n1`
A) 92 % of control

Q) // same read-out, input: `O=C(CCC(=O)c1cccc([N+](=O)[O-])c1)NNc1ccc([N+](=O)[O-])cc1[N+](=O)[O-]`
A) 102 % of control

Q) // same read-out, input: `O=[N+]([O-])c1cc(I)c(I)c(I)c1`
A) 98 % of control

Q) // same read-out, input: CC(O)C1CCC2C3CCC4CC(O)CCC4(C)C3CCC12C (stereo not given)
A) 101 % of control

Q) // same read-out, input: `Cc1ccc2c(c1)C(c1ccccc1)(c1ccccc1)OC2=O`
A) 95 % of control

Q) // same read-out, input: `N#CCCc1c(O)ccc2ccccc12`
A) 86 % of control

Q) // same read-out, input: `COc1ccccc1C(=O)C(=O)c1ccccc1OC`
A) 100 % of control

Q) // same read-out, input: `CC(=O)Nc1cccc(OCCCOc2cccc([N+](=O)[O-])c2)c1`
A) 92 % of control

Q) // same read-out, input: N#CC12C(=N)CCC1C1CC2C2C3C=CC(C3)C12 (stereo not given)
A) 95 % of control

Q) // same read-out, input: CCCC/C=C/C(C)O (stereo not given)
A) 103 % of control

Q) // same read-out, input: `CCOC(=O)c1c(F)c(F)c(Oc2c(F)c(F)c(F)c(F)c2F)c(F)c1F`
A) 92 % of control

Q) // same read-out, input: `CN(CC(=O)O)C(=S)c1ccccc1`
A) 95 % of control

Q) // same read-out, input: `CCOC(=O)Nc1cc(Cl)ccc1O`
A) 88 % of control

Q) // same read-out, input: `Clc1ccc(-n2cccc2)cc1`
A) 98 % of control

Q) // same read-out, input: `NC(=O)Cc1c[nH]c2cc(O)ccc12`
A) 95 % of control

Q) // same read-out, input: `Cn1c(=O)cc(O)c2ccccc21`
A) 97 % of control

Q) // same read-out, input: `O=[N+]([O-])c1ccccc1NCCNCCNc1ccccc1[N+](=O)[O-]`
A) 98 % of control

Q) // same read-out, input: O=C(O)C1CCC(CC2CCCCC2)CC1 (stereo not given)
A) 104 % of control

Q) // same read-out, input: `CC(=O)SC(Cc1ccccc1)(Cc1ccccc1)SC(C)=O`
A) 100 % of control

Q) // same read-out, input: `CCCCOS(=O)(=O)c1ccc(Cl)c([N+](=O)[O-])c1`
A) 91 % of control

Q) // same read-out, input: `CC(=O)COc1ccc(C)cc1`
A) 98 % of control

Q) // same read-out, input: CCC12C(=O)C(CC)(C3=C1c1cccc4cccc3c14)C1C(=O)OC(=O)C12 (stereo not given)
A) 97 % of control

Q) // same read-out, input: `OC(Cc1cccc(/C=N/N2CCOCC2)n1)(C(F)(F)F)C(F)(F)F`
A) 89 % of control

Q) // same read-out, input: `CC1CCN(Cc2c(COc3ccc(Cl)cc3)n(C)c3ccccc23)CC1`
A) 94 % of control
